Experiment: MTT cytotoxicity assay on L929 fibroblasts
Assay type: cell-based, murine
Conditions: mouse, L929 (NCTC clone 929) fibroblast cells, compounds 100-0.78 μM, GA 10-0.078 μM, 2 independent experiments
PARAMETER_MEASURED: IC50 at 24 h

COMPOUND	IC50 at 24 h
CCN(CC)Cc1ccc(Cn2c(=O)c(OCc3ccc(C(=O)NO)cc3)c(-c3cccnc3)c3ccccc32)cc1 [NF2838]	64 to 100 µM

Moving on to the next compound.
Value lookup for IC50 at 24 h; key = Cn1c(=O)c(OCc2ccc(C(=O)NO)cc2)c(C2CCCCC2)c2ccccc21 [NF2836]
> 100 µM

These measurements were taken from paper PMC10927086.
